Listed below: IC50 values for each entry.
test system: 616215-338-R-J1-PDC tumor spheroids, viability; experiment: Anticancer human tumor 616215-338-R-J1-PDC patient-derived colon adenocarcinoma cell line growth inhibition [GQUAD]; conditions: curve of first compound; second compound 1 µM; spheroids with HUVEC and MSC

Compound | Relational Operator | IC50 / nM
CCc1c2c(nc3ccc(O)cc13)-c1cc3c(c(=O)n1C2)COC(=O)[C@]3(O)CC + CN(C)c1ccc(Nc2c3ccc(NC(=O)CCN4CCCC4)cc3nc3cc(NC(=O)CCN4CCCC4)ccc23)cc1 | = | 12.4
O=C(c1cc(Cc2n[nH]c(=O)c3ccccc23)ccc1F)N1CCN(C(=O)C2CC2)CC1 + Cc1cnc(CNC(=O)c2c(=O)c3ccc(N4CCCN(C)CC4)nc3n3c2sc2ccccc23)cn1 | < | 31.6
CC(C)n1c(=O)n(C)c2cnc3cc(F)c(-c4ccc(OCCCN5CCCCC5)nc4)cc3c21 + Cc1[nH]c2ccc(F)cc2c1-c1nc2c3cccnc3c3ncccc3c2[nH]1 | > | 10000
CCCS(=O)(=O)Nc1ccc(F)c(C(=O)c2c[nH]c3ncc(-c4ccc(Cl)cc4)cc23)c1F + CN(C)c1ccc(Nc2c3ccc(NC(=O)CCN4CCCC4)cc3nc3cc(NC(=O)CCN4CCCC4)ccc23)cc1 | = | 5910
CC1COCCN1c1cc(-c2ccnn2C)c2ccnc(-c3ccn[nH]3)c2n1 (stereo not given) + Cc1[nH]c2ccc(F)cc2c1-c1nc2c3cccnc3c3ncccc3c2[nH]1 | = | 170

###

tested on: 616215-338-R-J1-PDC tumor spheroids, viability; test: Anticancer human tumor 616215-338-R-J1-PDC cell line growth inhibition [GQUAD]; settings: second compound 0.1 µM; first compound 1 µM; stronger effect = lower value; spheroids with HUVEC and MSC;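 also: spheroids exposed to agents for 7 days before readout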;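 as to viability, T/C: percent viability relative to DMSO vehicle control wells taken as 100%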
Listed below: viability, T/C values for each entry.
Property Name: viability, T/C

Compound | Property Name | Measurement
O=C(c1cc(Cc2n[nH]c(=O)c3ccccc23)ccc1F)N1CCN(C(=O)C2CC2)CC1 + Cc1cnc(CNC(=O)c2c(=O)c3ccc(N4CCCN(C)CC4)nc3n3c2sc2ccccc23)cn1 | viability, T/C | 64.3%
CC1COCCN1c1cc(C2(S(C)(=N)=O)CC2)nc(-c2ccnc3[nH]ccc23)n1 (stereo not given) + CN(C)c1ccc(Nc2c3ccc(NC(=O)CCN4CCCC4)cc3nc3cc(NC(=O)CCN4CCCC4)ccc23)cc1 | viability, T/C | 98%
CC1COCCN1c1cc(-c2ccnn2C)c2ccnc(-c3ccn[nH]3)c2n1 (stereo not given) + CN(C)c1ccc(Nc2c3ccc(NC(=O)CCN4CCCC4)cc3nc3cc(NC(=O)CCN4CCCC4)ccc23)cc1 | viability, T/C | 21.2%
CC1COCCN1c1cc(C2(O)CC3CCC(C2)O3)c2cnn(-c3ccn[nH]3)c2n1 (stereo not given) + Cc1[nH]c2ccc(F)cc2c1-c1nc2c3cccnc3c3ncccc3c2[nH]1 | viability, T/C | 31.1%
COc1cc(C2c3cc4c(cc3C(OC3OC5COC(C)OC5C(O)C3O)C3COC(=O)C23)OCO4)cc(OC)c1O (stereo not given) + Cc1cnc(CNC(=O)c2c(=O)c3ccc(N4CCCN(C)CC4)nc3n3c2sc2ccccc23)cn1 | viability, T/C | 38.8%

###

tested on: 616215-338-R-J1-PDC tumor spheroids, viability; assay: Anticancer human tumor 616215-338-R-J1-PDC cell line growth inhibition [GQUAD]; conditions: second compound 1 µM; first compound 3.16 µM; spheroids with HUVEC and MSC; active = viability on the fitted dose curve at most 10% of control; inactive = the rest;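 also: spheroids exposed to agents for 7 days before readout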
Outcomes: active, inactive

Molecule | Answer Label
O=C(NO)c1cnc(N2CCN(S(=O)(=O)c3ccc4ccccc4c3)CC2)nc1 + Cc1cnc(CNC(=O)c2c(=O)c3ccc(N4CCCN(C)CC4)nc3n3c2sc2ccccc23)cn1 | active
COc1cc(C2c3cc4c(cc3C(OC3OC5COC(C)OC5C(O)C3O)C3COC(=O)C23)OCO4)cc(OC)c1O (stereo not drawn) + Cc1cnc(CNC(=O)c2c(=O)c3ccc(N4CCCN(C)CC4)nc3n3c2sc2ccccc23)cn1 | inactive
CC(C)n1c(=O)n(C)c2cnc3cc(F)c(-c4ccc(OCCCN5CCCCC5)nc4)cc3c21 + Cc1[nH]c2ccc(F)cc2c1-c1nc2c3cccnc3c3ncccc3c2[nH]1 | inactive

###

Listed below: IC50 values for each entry.
test system: 616215-338-R-J1-PDC tumor spheroids, viability; experiment: Anticancer human tumor 616215-338-R-J1-PDC cell line growth inhibition [GQUAD]; settings: curve of first compound; second compound 1 µM; spheroids with HUVEC and MSC;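 also: spheroids exposed to agents for 7 days before readout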
Property Name: IC50

Compound | Target Or System | Property Name | Measurement
COc1ccc([C@@H](O)c2cc(-c3ncnc4cc(N5CCOCC5)ccc34)c(F)cc2Cl)nn1 + Cc1[nH]c2ccc(F)cc2c1-c1nc2c3cccnc3c3ncccc3c2[nH]1 | 616215-338-R-J1-PDC tumor spheroids, viability | IC50 | > 10000 nM
CC(C)(O)C1CCC(Nc2ccc3ncc(-c4cccc(C(F)(F)F)c4)n3n2)CC1 (configuration not stated) + Cc1cnc(CNC(=O)c2c(=O)c3ccc(N4CCCN(C)CC4)nc3n3c2sc2ccccc23)cn1 | 616215-338-R-J1-PDC tumor spheroids, viability | IC50 | < 31.6 nM
O=c1[nH]cc(F)c(=O)[nH]1 + Cc1[nH]c2ccc(F)cc2c1-c1nc2c3cccnc3c3ncccc3c2[nH]1 | 616215-338-R-J1-PDC tumor spheroids, viability | IC50 | 729 nM
C#Cc1c(F)ccc2cc(O)cc(-c3ncc4c(N5CC6CCC(C5)N6)nc(OCC56CCCN5CC(F)C6)nc4c3F)c12 (configuration not stated) + Cc1[nH]c2ccc(F)cc2c1-c1nc2c3cccnc3c3ncccc3c2[nH]1 | 616215-338-R-J1-PDC tumor spheroids, viability | IC50 | > 10000 nM
Nc1ccn(C2OC(CO)C(O)C2(F)F)c(=O)n1 (configuration not stated) + Cc1cnc(CNC(=O)c2c(=O)c3ccc(N4CCCN(C)CC4)nc3n3c2sc2ccccc23)cn1 | 616215-338-R-J1-PDC tumor spheroids, viability | IC50 | < 31.6 nM
CC(C)n1c(=O)n(C)c2cnc3cc(F)c(-c4ccc(OCCCN5CCCCC5)nc4)cc3c21 + CN(C)c1ccc(Nc2c3ccc(NC(=O)CCN4CCCC4)cc3nc3cc(NC(=O)CCN4CCCC4)ccc23)cc1 | 616215-338-R-J1-PDC tumor spheroids, viability | IC50 | > 10000 nM
O=c1[nH]cc(F)c(=O)[nH]1 + Cc1cnc(CNC(=O)c2c(=O)c3ccc(N4CCCN(C)CC4)nc3n3c2sc2ccccc23)cn1 | 616215-338-R-J1-PDC tumor spheroids, viability | IC50 | < 31.6 nM
C=CC(=O)N1CCN(c2nc(=O)n(-c3c(C)ccnc3C(C)C)c3nc(-c4c(O)cccc4F)c(F)cc23)C(C)C1 (configuration not stated) + Cc1[nH]c2ccc(F)cc2c1-c1nc2c3cccnc3c3ncccc3c2[nH]1 | 616215-338-R-J1-PDC tumor spheroids, viability | IC50 | > 10000 nM
CCc1c2c(nc3ccc(O)cc13)-c1cc3c(c(=O)n1C2)COC(=O)[C@]3(O)CC + Cc1cnc(CNC(=O)c2c(=O)c3ccc(N4CCCN(C)CC4)nc3n3c2sc2ccccc23)cn1 | 616215-338-R-J1-PDC tumor spheroids, viability | IC50 | < 0.999 nM
O=C(c1cc(Cc2n[nH]c(=O)c3ccccc23)ccc1F)N1CCN(C(=O)C2CC2)CC1 + CN(C)c1ccc(Nc2c3ccc(NC(=O)CCN4CCCC4)cc3nc3cc(NC(=O)CCN4CCCC4)ccc23)cc1 | 616215-338-R-J1-PDC tumor spheroids, viability | IC50 | > 10000 nM
CC[C@@]1(O)C(=O)OCc2c1cc1n(c2=O)Cc2cc3c(CN(C)C)c(O)ccc3nc2-1 + Cc1cnc(CNC(=O)c2c(=O)c3ccc(N4CCCN(C)CC4)nc3n3c2sc2ccccc23)cn1 | 616215-338-R-J1-PDC tumor spheroids, viability | IC50 | < 0.999 nM
Nc1ccn(C2OC(CO)C(O)C2(F)F)c(=O)n1 (configuration not stated) + Cc1[nH]c2ccc(F)cc2c1-c1nc2c3cccnc3c3ncccc3c2[nH]1 | 616215-338-R-J1-PDC tumor spheroids, viability | IC50 | < 31.6 nM

###

test system: 616215-338-R-J1-PDC tumor spheroids, viability; test: Anticancer human tumor 616215-338-R-J1-PDC cell line growth inhibition [GQUAD]; details: second compound 1 µM; first compound 3.16 µM; stronger effect = lower value; spheroids with HUVEC and MSC;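 also: spheroids exposed to agents for 7 days before readout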;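 as to viability, T/C: percent viability relative to DMSO vehicle control wells taken as 100%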
Doc: threshold 40% (exclusive). Items with viability, T/C beneath it return Met; others return Not met.

Molecule | Answer Label
CC1COCCN1c1cc(C2(S(C)(=N)=O)CC2)nc(-c2ccnc3[nH]ccc23)n1 (stereo not given) + CN(C)c1ccc(Nc2c3ccc(NC(=O)CCN4CCCC4)cc3nc3cc(NC(=O)CCN4CCCC4)ccc23)cc1 | Not met
C=CCn1c(=O)c2cnc(Nc3ccc(N4CCN(C)CC4)cc3)nc2n1-c1cccc(C(C)(C)O)n1 + CN(C)c1ccc(Nc2c3ccc(NC(=O)CCN4CCCC4)cc3nc3cc(NC(=O)CCN4CCCC4)ccc23)cc1 | Met
COc1ncnc(C2CC2)c1-c1ncc2cnn(Cc3ccc(-c4nc(C(F)(F)F)cn4C(C)C)cc3)c2n1 + Cc1[nH]c2ccc(F)cc2c1-c1nc2c3cccnc3c3ncccc3c2[nH]1 | Not met
CC(C)n1c(=O)n(C)c2cnc3cc(F)c(-c4ccc(OCCCN5CCCCC5)nc4)cc3c21 + Cc1cnc(CNC(=O)c2c(=O)c3ccc(N4CCCN(C)CC4)nc3n3c2sc2ccccc23)cn1 | Met
